- target-under-test: T1, human TSH receptor (full length), coated on tubes (human, UniProt P16473 22-764)
- T1 construct: TSHR coated tubes as described in WO2004/050708A2; Exact preparation on the tubes is not detailed here; also called thyroid stimulating hormone receptor
- assay-name: competition with 125I-K1-18 IgG on TSHR coated tubes; 10 µg/mL, diluted in assay buffer
readout: Inhibition of binding (%)
The reply should contain only the number, in %.

- binder: "K1-18 Fab (Fab, V domains shown) VH: EVQLVQSGAEVKKPGESLKISCKGSGYSFTNYWIGWVRQMPGKGLEWMGIIYPYDSDTRYSPSFEGQVTISADKSIRTAYLHWSSLKASDTAMYYCVRPRDGSYPYDAFDIWGQGTMVTVSS VL: EIVLTQSPGTLSLSPGERATLSCRASQSVSNNYLAWYQQKPGQAPRLLIYGASSRATGIPDRFSGSGSGTDFTLTISRLEPEDFAVYYCQHCGSSLRAFGQGTKVEIKR"
  scale-unit: "%"
  Inhibition of binding (%): 81.8
- binder: "K1-70 Fab (Fab, V domains shown) VH: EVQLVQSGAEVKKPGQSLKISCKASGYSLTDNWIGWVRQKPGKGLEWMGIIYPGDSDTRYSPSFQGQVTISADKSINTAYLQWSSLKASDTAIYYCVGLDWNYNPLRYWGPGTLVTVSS VL: QSVLTQPPSVSAAPGQKVTISCSGSSSDIGSNYVSWYQQFPGTAPKLLIYDNNKRPSAIPDRFSGSKSGTSATLGITGLQTGDEADYYCGTWDSRLGIAVFGGGTQLTVLG"
  scale-unit: "%"
  Inhibition of binding (%): 92.4
- binder: "K1-18 IgG (antibody, V domains shown) VH: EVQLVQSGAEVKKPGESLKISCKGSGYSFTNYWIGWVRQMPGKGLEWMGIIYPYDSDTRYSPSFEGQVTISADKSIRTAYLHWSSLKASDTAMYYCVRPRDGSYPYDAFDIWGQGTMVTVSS VL: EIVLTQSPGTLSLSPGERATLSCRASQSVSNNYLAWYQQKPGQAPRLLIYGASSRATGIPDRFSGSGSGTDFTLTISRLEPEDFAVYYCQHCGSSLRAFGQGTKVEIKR"
  scale-unit: "%"
  Inhibition of binding (%): 92.5

Moving on to another binder below.
Query: I am curious: what Inhibition of binding (%) value has been reported for K1-70 IgG (antibody, V domains shown) VH: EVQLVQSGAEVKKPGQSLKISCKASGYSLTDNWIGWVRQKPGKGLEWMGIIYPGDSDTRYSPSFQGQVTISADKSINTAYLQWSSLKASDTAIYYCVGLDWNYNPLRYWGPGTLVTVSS VL: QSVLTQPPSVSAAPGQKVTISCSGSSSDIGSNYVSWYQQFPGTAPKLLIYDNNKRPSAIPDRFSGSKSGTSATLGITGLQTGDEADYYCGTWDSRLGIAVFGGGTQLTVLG ?
Reply: 91.9
